Below, each entry is listed with its recorded IC50.
- tested system: JAK3 enzyme (Homo sapiens (Human))
- Sequence (P52333 whole entry, species assumed): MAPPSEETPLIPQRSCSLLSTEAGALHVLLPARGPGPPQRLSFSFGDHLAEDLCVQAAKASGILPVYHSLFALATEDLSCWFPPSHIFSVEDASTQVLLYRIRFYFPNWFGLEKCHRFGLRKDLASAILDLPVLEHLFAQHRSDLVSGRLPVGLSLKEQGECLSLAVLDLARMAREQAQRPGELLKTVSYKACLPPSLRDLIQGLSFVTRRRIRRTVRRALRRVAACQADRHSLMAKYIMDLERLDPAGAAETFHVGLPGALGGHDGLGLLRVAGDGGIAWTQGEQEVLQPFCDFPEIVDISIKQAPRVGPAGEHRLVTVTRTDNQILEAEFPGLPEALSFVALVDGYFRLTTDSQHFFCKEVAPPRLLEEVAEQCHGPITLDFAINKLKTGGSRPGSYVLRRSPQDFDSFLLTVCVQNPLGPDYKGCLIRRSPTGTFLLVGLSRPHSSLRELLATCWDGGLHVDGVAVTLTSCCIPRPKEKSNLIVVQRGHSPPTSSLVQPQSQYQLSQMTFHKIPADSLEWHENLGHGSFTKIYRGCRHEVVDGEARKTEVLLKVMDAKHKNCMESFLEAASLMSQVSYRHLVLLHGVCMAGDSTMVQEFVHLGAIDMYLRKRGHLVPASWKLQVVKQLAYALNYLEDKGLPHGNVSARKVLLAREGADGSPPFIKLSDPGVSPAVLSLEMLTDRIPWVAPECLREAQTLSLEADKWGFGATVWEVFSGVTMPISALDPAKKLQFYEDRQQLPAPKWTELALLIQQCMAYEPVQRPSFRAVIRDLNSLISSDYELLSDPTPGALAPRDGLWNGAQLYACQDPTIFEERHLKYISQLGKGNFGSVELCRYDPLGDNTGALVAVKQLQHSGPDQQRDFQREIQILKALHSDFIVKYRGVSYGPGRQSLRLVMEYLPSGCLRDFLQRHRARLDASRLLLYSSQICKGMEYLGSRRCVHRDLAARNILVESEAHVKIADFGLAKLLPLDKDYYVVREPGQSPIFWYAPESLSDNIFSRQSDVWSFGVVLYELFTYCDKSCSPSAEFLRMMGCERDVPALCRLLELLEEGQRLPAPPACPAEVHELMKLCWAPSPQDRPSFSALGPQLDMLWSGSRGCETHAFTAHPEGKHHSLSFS
- experimental protocol: JAK Caliper Enzyme Assay at 4 μM or 1 mM ATP
- Format: biochemical
- measurement conditions: read-out: JAK3 (1 mM ATP) IC50; 1 mM ATP
measurement label: IC50 (nM)

* C=CC(=O)N1CCC(Nc2cnc3[nH]cc(C(=O)N(C)C(C)C)c3n2)CC1 [Example 279] | 592
* C=CC(=O)N1CC[C@]2(C)CCN(c3ncnc4[nH]ccc34)[C@@H]2C1 [Example 59] | 403
* C=CC(=O)N1CCC(Nc2cnc3[nH]cc(C(=O)N[C@@H](C)CCC)c3n2)CC1 [Example 267] | 9
* C=CC(=O)N1CC2CCN(c3cnc4[nH]cc(C(=O)NC(C)C)c4n3)C2C1 (stereo not shown) [Example 178] | 102
